Tested on: corn (Zea mays)
Experiment: Test B pre-/postemergence plant response
Assay type: in vivo
Conditions: Postemergence, 62 g ai/ha; scale 0 (no effect) to 100 (complete control); 13 to 15 days
Threshold rule: Plant response rating, Corn greater than or equal to 60 is Condition met; below that, Condition not met.

Solved entries (count: 5):
# molecularString, assayedSystem, classLabel
records = [
    ("O=C1CCCC(O)=C1C(=O)c1cnc(-c2ccccc2)n(-c2ccccc2Br)c1=O", "corn (Zea mays)", "Condition not met"),
    ("Cc1cccc(-n2c(-c3ccccc3)ncc(C(=O)C3=C(O)CCCC3=O)c2=O)c1F", "corn (Zea mays)", "Condition not met"),
    ("Cc1cc(F)ccc1-n1c(-c2ccccc2)ncc(C(=O)C2=C(O)CCCC2=O)c1=O", "corn (Zea mays)", "Condition met"),
    ("CCCCc1ncc(C(=O)C2=C(O)CCCC2=O)c(=O)n1-c1ccccc1C", "corn (Zea mays)", "Condition met"),
    ("Cc1ccc(C)c(-n2c(-c3ccccc3)ncc(C(=O)C3=C(O)CCCC3=O)c2=O)c1", "corn (Zea mays)", "Condition not met"),
]

# bool: Plant response rating, Corn of O=C1CCCC([O-])=C1C(=O)c1cnc(-c2ccccc2)n(-c2ccccc2)c1=O.[K+] >= 60 Condition not met

Then this molecule: Cc1cccc(-n2c(-c3ccccc3)ncc(C(=O)C3=C(O)CCCC3=O)c2=O)c1C Condition not met

Then this molecule: O=C1CCCC(O)=C1C(=O)c1cnc(-c2cccs2)n(-c2ccccc2)c1=O Condition not met
